Values compiled from patent US9504669B2.

- Tested on: BT474 (breast cancer) cells
- Experimental protocol: In vitro cell assay (MTS cell viability), BT474
- Type: cell-based
- Assay context: Homo sapiens, BT-474; free compounds (natural products and synthetic analogs); cell viability 96 hours after treatment
Where a name gives a salt, the structure may show the parent alone.
IC50 under 4 nM gets yes (1), anything at or over 4 nM gets no (0).

>>> class("CCCNC(=O)C[C@@H]1C[C@@]2(CO2)[C@H](O)[C@@H](/C=C/C(C)=C/C[C@@H]2O[C@H](C)[C@H](NC(=O)/C=C\\[C@H](C)OC(=O)C(C)C)C[C@@H]2C)O1 [#B71]")
"yes (1)"
>>> class("CC(=O)O[C@@H](C)/C=C\\C(=O)N[C@@H]1C[C@H](C)[C@H](C/C=C(C)/C=C/[C@H]2O[C@H](CC(=O)NCc3ccc(N)cc3F)C[C@@]3(CO3)[C@@H]2O)O[C@@H]1C [#B84]")
"yes (1)"
>>> class("CC(=O)O[C@@H](C)/C=C\\C(=O)N[C@@H]1C[C@H](C)[C@H](C/C=C(C)/C=C/[C@H]2OC(C)(O)C(O)C(O)(CO)C2O)O[C@@H]1C (some centres unmarked) [#NP6]")
"no (0)"

Lab note: IC50 threshold 4 nM. Does this compound come in strictly under it? CC(=O)O[C@@H](C)/C=C\C(=O)N[C@@H]1C[C@H](C)[C@H](C/C=C(C)/C=C/[C@@H]2C[C@]3(CO3)C[C@@](C)(O)O2)O[C@@H]1C [#NP12]
no (0)

Lab note: IC50 threshold 4 nM. Does this compound come in strictly under it? CC(=O)O[C@@H](C)/C=C\C(=O)N[C@@H]1C[C@H](C)[C@H](C/C=C(C)/C=C/[C@H]2O[C@H](CC(=O)NCc3ccc(S(N)(=O)=O)cc3)C[C@@]3(CO3)[C@@H]2O)O[C@@H]1C [#B10]
no (0)

Lab note: IC50 threshold 4 nM. Does this compound come in strictly under it? CC(=O)O[C@@H](C)/C=C\C(=O)N[C@@H]1C[C@H](C)[C@H](C/C=C(C)/C=C/[C@@H]2CC(C)=CC(=O)O2)O[C@@H]1C [#NP11]
yes (1)

Lab note: IC50 threshold 4 nM. Does this compound come in strictly under it? CC(=O)O[C@@H](C)/C=C\C(=O)N[C@@H]1C[C@H](C)[C@H](C/C=C(C)/C=C/[C@H]2O[C@H](CC(=O)NCc3cccc(N)c3)C[C@@]3(CO3)[C@@H]2O)O[C@@H]1C [#B89]
yes (1)

Lab note: IC50 threshold 4 nM. Does this compound come in strictly under it? CC(=O)OCC1(O)C(O)C(/C=C/C(C)=C/C[C@@H]2O[C@H](C)[C@H](NC(=O)/C=C\[C@H](C)OC(C)=O)C[C@@H]2C)OC(C)(O)C1O (some centres unmarked) [#NP9]
no (0)

Lab note: IC50 threshold 4 nM. Does this compound come in strictly under it? CC(/C=C/[C@@H]1C[C@]2(CO2)C[C@@H](CC(N)=O)O1)=C\C[C@@H]1O[C@H](C)[C@H](NC(=O)/C=C\[C@H](C)O)C[C@@H]1C [#B39]
yes (1)

Lab note: IC50 threshold 4 nM. Does this compound come in strictly under it? CC(=O)O[C@@H](C)/C=C\C(=O)N[C@@H]1C[C@H](C)[C@H](C/C=C(C)/C=C/[C@H]2O[C@H](CC(=O)N3CCNCC3)C[C@@]3(CO3)[C@@H]2O)O[C@@H]1C [#B12, acetate, acetate salt]
no (0)

Lab note: IC50 threshold 4 nM. Does this compound come in strictly under it? CC(=O)O[C@@H](C)/C=C\C(=O)N[C@@H]1C[C@H](C)[C@H](C/C=C(C)/C=C/[C@H]2O[C@H](CC(=O)O)C[C@@]3(CO3)[C@@H]2O)O[C@@H]1C [#NP1]
no (0)

* * *

- Tested on: BT474 (breast cancer) cells
- Experimental protocol: In vitro cell assay (MTS cell viability), BT474
- Format: cell-based
- Assay context: Homo sapiens, BT-474; free compounds (natural products and synthetic analogs); cell viability 96 hours after treatment
Form field: pIC50 (one value per entry).
FYI, pIC50 means -log10 of a concentration in mol per litre.

Would you please look over these solved cases?
>>> observed_result("CC(=O)O[C@@H](C)/C=C\\C(=O)N[C@@H]1C[C@H](C)[C@H](C/C=C(C)/C=C/[C@@H]2C[C@]3(CO3)C[C@@H](CC(=O)NCc3ccc(S(N)(=O)=O)cc3)O2)O[C@@H]1C")
8.05
>>> observed_result("CC(=O)O[C@@H](C)/C=C\\C(=O)N[C@@H]1C[C@H](C)[C@H](C/C=C(C)/C=C/[C@H]2O[C@H](CC(=O)NCc3cc(N)ccc3F)C[C@@]3(CO3)[C@@H]2O)O[C@@H]1C")
8.64
>>> observed_result("CSCCNC(=O)C[C@@H]1C[C@@]2(CO2)C[C@@H](/C=C/C(C)=C/C[C@@H]2O[C@H](C)[C@H](NC(=O)/C=C\\[C@H](C)OC(C)=O)C[C@@H]2C)O1")
8.39

Query (compound): CC(/C=C/[C@@H]1C[C@]2(CO2)C[C@@H](CC(N)=O)O1)=C\C[C@@H]1O[C@H](C)[C@H](NC(=O)/C=C\[C@H](C)OC(=O)N2CCCCC2)C[C@@H]1C ; field requested: pIC50
8.73

* * *

Form field: IC50 (one value per entry).
- Tested on: N87 (gastric cancer) cells
- Experimental protocol: In vitro cell assay (MTS cell viability), N87
- Assay type: cell-based
- Assay context: free compounds (natural products and synthetic analogs); cell viability 96 hours after treatment
Give the value, in units of nM, as a plain number.

Would you please look over these solved cases?
>>> observed_result("CC(=O)O[C@@H](C)/C=C\\C(=O)N[C@@H]1C[C@H](C)[C@H](C/C=C(C)/C=C/[C@@H]2C[C@]3(CO3)C[C@@H](CC(=O)NCCO)O2)O[C@@H]1C [#B95]")
1.06
>>> observed_result("CC(/C=C/[C@@H]1C[C@]2(CO2)C[C@@H](CC(N)=O)O1)=C\\C[C@@H]1O[C@H](C)[C@H](NC(=O)/C=C/C(C)N)C[C@@H]1C (stereo partly shown) [#B273]")
600

Let us move to another entry and its IC50.
Query (compound): CC(=O)O[C@@H](C)/C=C\C(=O)N[C@@H]1C[C@H](C)[C@H](C/C=C(C)/C=C/[C@H]2O[C@H](CC(=O)NCc3ccc(S(=O)(=O)N(C)C)cc3)C[C@@]3(CO3)[C@@H]2O)O[C@@H]1C [#B93] ; field requested: IC50
0.647

* * *

- Test system: BT474 (breast cancer) cells
- Experimental protocol: In vitro cell assay (MTS cell viability), BT474
- Type: cell-based
- Assay context: Homo sapiens, BT-474; free compounds (natural products and synthetic analogs); cell viability 96 hours after treatment
Measured endpoint: log10 of IC50 (log10 of the value in nM)
Heads up, the numbers here are log10 of IC50 in nM units.

Would you please look over these solved cases?
>>> observed_result("CC(/C=C/[C@@H]1C[C@]2(CO2)C[C@@H](CC(=O)O)O1)=C\\C[C@@H]1O[C@H](C)[C@H](NC(=O)/C=C\\[C@H](C)O)C[C@@H]1C")
1.88
>>> observed_result("CC(=O)O[C@@H](C)/C=C\\C(=O)N[C@@H]1C[C@H](C)[C@H](C/C=C(C)/C=C/[C@H]2O[C@H](CC(=O)N[C@H]3C[C@H](N)C3)C[C@@]3(CO3)[C@@H]2O)O[C@@H]1C")
2.47
>>> observed_result("CC(=O)O[C@@H](C)/C=C\\C(=O)N[C@@H]1C[C@H](C)[C@H](C/C=C(C)/C=C/[C@H]2O[C@H](CC(=O)NCCO)C[C@@]3(CO3)[C@@H]2O)O[C@@H]1C")
1.15
>>> observed_result("COC(=O)C[C@@H]1C[C@@]2(CO2)[C@H](O)[C@@H](/C=C/C(C)=C/C[C@@H]2O[C@H](C)[C@H](NC(=O)/C=C\\[C@H](C)OC(C)=O)C[C@@H]2C)O1")
-0.06

Let us move to another entry and its log10 of IC50.
What measured log10 of IC50 is associated with CC(=O)O[C@@H](C)/C=C\C(=O)N[C@@H]1C[C@H](C)[C@H](C/C=C(C)/C=C/[C@@H]2C[C@]3(CO3)C[C@@H](CC(=O)NCCS(C)(=O)=O)O2)O[C@@H]1C on BT474 (breast cancer) cells?
0.60

* * *

- Tested on: MDA-MB-468 cells (target non-expressing)
- Experimental protocol: In vitro cell assay (MTS cell viability), MDA-MB-468
- Format: cell-based
- Assay context: Homo sapiens, MDA-MB-468; free compounds (natural products and synthetic analogs); cell viability 96 hours after treatment; read-out: MDA-MB-468 IC50
Measured endpoint: pIC50
FYI, pIC50 means -log10 of a concentration in mol per litre.

Query (compound): CC(=O)O[C@@H](C)/C=C\C(=O)N[C@@H]1C[C@H](C)[C@H](C/C=C(C)/C=C/[C@@H]2C[C@]3(CO3)C[C@@H](CC(=O)O)O2)O[C@@H]1C ; field requested: pIC50
8.47
